Some molecules, each annotated with its measured z-score.
# method_summary: S. cerevisiae growth modulation with rapamycin, primary screen, strain BY4716, OD600, 96 h (AID 1091); note: test concentration not given here
# assay_conditions: higher = more signal, called active from +8 up or from −8 down
Quick one: just the number, no unit, thanks!

Please review the following examples before continuing.
Can you look up the measured z-score of "COc1ccc(CCNC(=O)[C@@]2(Sc3ccc(C)cc3)CC(=O)N(Cc3cc(C(F)(F)F)cc(C(F)(F)F)c3)[C@@H]2c2ccc(CO)cc2I)cc1" for me?
2.1

Can you look up the measured z-score of "CCCC[C@@H]1C[C@H]1[C@@H](NC(=O)c1ccccc1)c1ccc(Cl)cc1" for me?
-2.01

Can you look up the measured z-score of "CCOC(=O)C1=CC[C@@H](c2cc(Cl)ccc2Cl)N(S(=O)(=O)c2ccc(C)cc2)[C@H]1c1ccc(OC)cc1" for me?
1.43

Can you look up the measured z-score of "CC(C)(C)OC(=O)CC[C@]1(C(=O)O)N=C(c2ccc(OCCCO)cc2)O[C@H]1c1ccccc1" for me?
-1.97

Can you look up the measured z-score of "[N-]=[N+]=NCc1ccccc1C[C@@]1(C(=O)N2CCCCC2)N=C(c2ccc(OCCCO)cc2)O[C@@H]1c1ccccc1N=[N+]=[N-]" for me?
4.02

Can you look up the measured z-score of "CO[C@H]1O[C@H](CO)[C@@H](OC(=O)c2ccc(Br)cc2)[C@@H]2OC(=O)[C@@H](Cc3ccc4ccccc4c3)C/C=C/C[C@H](Cc3ccc4ccccc4c3)C(=O)O[C@@H]12" for me?
-0.842

Could you now consider this next molecule?
Can you look up the measured z-score of "Cc1ccc(S[C@]2(C(=O)O)CC(=O)N(Cc3ccccc3Cl)[C@@H]2c2ccc(CO)cc2)cc1" for me?
0.644

====

# Tested on: PRMT1 (protein arginine N-methyltransferase 1)
# method_summary: PRMT1 binders on small-molecule microarrays, primary screen, biochemical, small-molecule microarray, 635 nm fluorescence (AID 1088);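 note: binding of Prmt1 protein to compounds spotted on small-molecule microarray slides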
# assay_conditions: small-molecule microarray binding, higher = more signal
quantity_kind: composite z-score
Quick one: just the number, no unit, thanks!

Please review the following examples before continuing.
Can you look up the measured composite z-score of "CCOC(=O)C1=CC[C@@H](c2ccccc2C(F)(F)F)N(S(=O)(=O)c2ccc(C)cc2)C1" for me?
1.5

Can you look up the measured composite z-score of "COc1cc(CO)cc(I)c1O[C@H]1C=C(C(=O)NCCO)C[C@@H](NCc2ccccc2F)[C@@H]1O" for me?
1.13

Can you look up the measured composite z-score of "CO[C@H]1O[C@H](CO)[C@@H](OC(=O)Nc2ccc(C(F)(F)F)cc2)[C@H](OC(=O)Nc2ccc3c(c2)OCO3)[C@H]1OC(=O)Nc1ccc2c(c1)OCO2" for me?
1.54

Could you now consider this next compound?
Can you look up the measured composite z-score of CC1CC/C=C\[C@H]2OC34C=CCN(c5ccc6ccccc6c5)C(=O)[C@H]3N(C(CO)C(C)C)C(=O)[C@@H]4C2C(=O)O1 (some centres undefined) for me?
0.445

====

Some molecules, each annotated with its measured z-score.
# method_summary: cell viability in Huh7 cells, primary screen, cytotoxicity control for HCV replication inhibitor project, CellTiter-Glo luminescence, basal, 48 h (AID 1143);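 note: Huh7 hepatoma cells carrying a hepatitis C replication reporter with no stimulus; test concentration not given here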
# assay_conditions: Huh7 HCV replicon, higher = more signal, called active from +8 up or from −8 down
Quick one: just the number, no unit, thanks!

Can you look up the measured z-score of "O=C(CS)NCCCCCCNC(=O)[C@H]1C[C@H]2C(=O)N[C@@H](Cc3ccccc3)C(=O)N2[C@H]1c1cccc(OCCO)c1" for me?
0.0054

Can you look up the measured z-score of COc1cc(CO)cc(I)c1O[C@H]1C=C(C(=O)NCCO)C[C@@H](N(Cc2ccc(F)cc2)C(=O)C2CCCO2)[C@@H]1O (some centres undefined) for me?
-0.457

Can you look up the measured z-score of "C[C@]1(C(=O)NCCN2CCOCC2)c2ccccc2C(=O)N(Cc2ccc(OC(F)(F)F)cc2)[C@H]1c1ccc(CO)cc1" for me?
-0.653

Can you look up the measured z-score of "O=C1C[C@]2(c3ccc([N+](=O)[O-])cc3)C(=O)N(Cc3ccccc3)c3cc(CO)ccc3[C@H]2N1CC12CC3CC(CC(C3)C1)C2" for me?
0.349
